Please go through the items and note down their pKd.
# TESTED TARGET: BCMA (analyte of Table 4A)
# Sequence (Q02223 whole entry): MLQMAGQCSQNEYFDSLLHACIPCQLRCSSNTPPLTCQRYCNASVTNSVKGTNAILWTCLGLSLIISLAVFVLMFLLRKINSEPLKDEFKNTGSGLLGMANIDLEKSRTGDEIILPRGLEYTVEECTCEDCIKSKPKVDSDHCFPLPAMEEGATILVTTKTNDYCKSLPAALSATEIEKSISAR
# MEASUREMENT NOTES: SPR (Bio-Rad ProteOn XPR36), IgG amine-coupled, BCMA as analyte, kinetic titration; species of BCMA and temperature not stated for Table 4A
One number for each entry, as −log10 of the molar value.

Before answering, review these 3 worked examples.
COMBO_Rd4_0.6nM_C29 (antibody, V domains shown, Tested as IgG) VH: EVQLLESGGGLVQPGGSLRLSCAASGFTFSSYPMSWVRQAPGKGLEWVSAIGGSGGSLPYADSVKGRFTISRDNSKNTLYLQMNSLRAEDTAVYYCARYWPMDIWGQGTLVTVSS VL: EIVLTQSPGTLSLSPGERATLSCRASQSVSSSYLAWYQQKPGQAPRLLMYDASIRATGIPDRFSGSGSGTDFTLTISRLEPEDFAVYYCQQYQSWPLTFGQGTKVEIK : 10.68
L3.PY/H3.TAQ (antibody, V domains shown, Tested as IgG) VH: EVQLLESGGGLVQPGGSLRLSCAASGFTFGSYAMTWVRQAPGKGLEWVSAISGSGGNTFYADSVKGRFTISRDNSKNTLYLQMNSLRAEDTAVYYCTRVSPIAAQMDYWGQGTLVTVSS VL: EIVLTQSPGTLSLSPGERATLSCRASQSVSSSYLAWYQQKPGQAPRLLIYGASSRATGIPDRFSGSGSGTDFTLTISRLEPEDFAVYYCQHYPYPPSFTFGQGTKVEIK : 10.28
A02_Rd4_6nM_C16 (antibody, V domains shown, Tested as IgG; also called P5AC16) VH: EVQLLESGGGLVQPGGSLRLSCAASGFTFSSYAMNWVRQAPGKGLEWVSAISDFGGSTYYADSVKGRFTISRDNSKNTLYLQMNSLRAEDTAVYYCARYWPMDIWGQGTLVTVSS VL: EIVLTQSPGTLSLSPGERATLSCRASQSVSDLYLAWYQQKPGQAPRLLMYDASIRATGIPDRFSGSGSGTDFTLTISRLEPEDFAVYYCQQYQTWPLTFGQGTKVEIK : 10.23

Query block: Reported pKd, binder A02_Rd4_6nM_C01 (antibody, V domains shown) VH: EVQLLESGGGLVQPGGSLRLSCAASGFTFSSYAMNWVRQAPGKGLEWVSAITASGGSTYYADSVKGRFTISRDNSKNTLYLQMNSLRAEDTAVYYCARYWPMSLWGQGTLVTVSS VL: EIVLTQSPGTLSLSPGERATLSCRASQSVSAYYLAWYQQKPGQAPRLLMYDASIRATGIPDRFSGSGSGTDFTLTISRLEPEDFAVYYCQQYERWPLTFGQGTKVEIK : ____
Result block: 10.62
